B1: DnaJ homolog subfamily C member 5, residues 16 to 77; numbered along this chain, Q9H3Z4 (parent)
chain: LYHVLGLDKNATSDDIKKSYRKLALKYHPDKNPDNPEAADKFKEINNAHAILTDATKRNIYD

variants of: B1; experiment: abundance fitness (aPCA) (normalised: wild type 0, dead -1); higher = more abundant; growth selection in yeast, the domain comes from the species named; details: Homo sapiens
Record form. Attribute: abundance fitness. Fill in for each entry.
# output: bare number, no unit

I am curious: what abundance fitness value has been reported for `K9D` ? -0.05

Would you kindly repeat that for `A48W` ? -1.58

Would you kindly repeat that for `D40T` ? 0.054

Would you kindly repeat that for `L25E` ? 0.321

Would you kindly repeat that for `I16D` ? -0.567
